Where do the numbers come from? From PubChem BioAssay (NCI).

- System: SR leukemia
- ASSAY_REMARKS: NCI tumour cell line growth inhibition, 48 h; in the data active = GI50 below about 0.43 µM; inactive = the rest
The reply should name one outcome from yes (1) (active), no (0) (inactive)

Recorded results for 8 compounds are shown here.
Cc1cc(N2CCN(c3ccnc4cc(Cl)ccc34)CC2)nc(NC2CCCCC2)n1: no (0)
CC/C(=C(/CC)c1ccc(O)cc1)c1ccc([O-])cc1.CC/C(=C(/CC)c1ccc(O)cc1)c1ccc([O-])cc1.O=C([CH-]C(=O)c1ccccc1)c1ccccc1.O=C([CH-]C(=O)c1ccccc1)c1ccccc1.[Ti+4]: no (0)
COc1ccc(C2=C(c3ccc(OC)c(OC)c3)C(=O)OC2)cc1: yes (1)
Cc1cc(I)cc(CN(C)CCN2CCCC2)c1O: no (0)
O=C(Nc1ccc(F)cc1F)c1cc(Br)ccc1O: no (0)
c1cn2cc(-c3ccc4ncn(C5CCCCC5)c4c3)nc(-c3ccc4c(c3)ncn4C3CCCCC3)c2n1: no (0)
O=C(CC12CC3CC(CC(C3)C1)C2)NCCOCCOCCOCCNC(=O)c1cc2c(o1)C(=O)c1ccccc1C2=O: no (0)
O=S(=O)(c1ccc(N=C2NN=C(c3c[nH]c4ccccc34)CS2)cc1)N1CCOCC1: no (0)

Prompt: Hi, sorry to bother you, what did the test record for COc1ccc2c(CN3CCC[C@H]3C(=O)O)cc3cc4c(cc3c2c1)OCO4 ?
Completion: no (0)

Prompt: Hi, sorry to bother you, what did the test record for c1cc(OCCN2CCCCC2)ccc1CNc1ccc2nc(CCC3CCCCC3)[nH]c2c1 ?
Completion: no (0)

Prompt: Hi, sorry to bother you, what did the test record for C[C@@H]1N=C(c2ccc(Br)cc2)Nc2nc3ccccn3c2C1=O ?
Completion: no (0)

Prompt: Hi, sorry to bother you, what did the test record for C=C[C@H]1CCC/C=C/[C@@H]2C[C@H](O)C[C@H]2[C@H](O)/C=C/C(=O)O1 ?
Completion: yes (1)

Prompt: Hi, sorry to bother you, what did the test record for CC1(C)CC(n2cnc(-c3ccc(F)cc3)c2-c2ccnc(N)n2)CC(C)(C)N1 ?
Completion: no (0)

###

- Tested on: MALME-3M melanoma
- ASSAY_REMARKS: NCI tumour cell line growth inhibition, 48 h
Where a SMILES comes first, the peptide text is derived from it. [ ]: non-standard residue; d: D form. The star is where a group is joined. ξ: configuration not given here. NMeN = CN[C@@H](CC(N)=O)C(=O)O; NMeV = CN[C@H](C(=O)O)C(C)C; ξNMeV = CNC(C(=O)O)C(C)C; Boc = CC(C)(C)OC(=O)*; ξNMeA = CNC(C)C(=O)O
QUANTITY_KIND: TGI

Some solved cases for reference:
O=CN1N=C(c2ccc(Cl)cc2)CC1c1cccc(Nc2ccnc3cc(Cl)ccc23)c1 (stereo not drawn): 7.25 µM
O=C(Nc1ccc(F)cc1F)c1cc(Br)ccc1O: 5.75 µM
O=S(=O)(c1ccc(N=C2NN=C(c3c[nH]c4ccccc34)CS2)cc1)N1CCOCC1: > 100 µM
c1ccc2c(c1)-c1ccccc1C2N1CC2CCC(CC2)C1: 27.6 µM
COC(=O)C(C)N(C)C(=O)[C@H](CC(N)=O)N(C)C(=O)[C@@H]1CCCN1C(=O)[C@H](C(C)C)N(C)C(=O)C(C(C)C)N(C)C(=O)[C@@H](NC(=O)OC(C)(C)C)C(C)C (stereo partly drawn) (Boc-V[ξNMeV][NMeV]P[NMeN][ξNMeA]-OMe): > 100 µM

Prompt: Annotate the compound Cc1cccc2[s+]snc12 with its measured TGI.
Completion: > 67.3 µM

Prompt: Annotate the compound O=C(c1ccco1)N(C(=S)N1CCN(c2ccccn2)CC1)C1CCCCC1 with its measured TGI.
Completion: > 100 µM

Prompt: Annotate the compound Fc1ccccc1-c1nn2c(C34CC5CC(CC(C5)C3)C4)nnc2s1 with its measured TGI.
Completion: > 100 µM

###

- System: DMS 114 small cell lung
- ASSAY_REMARKS: NCI tumour cell line growth inhibition, 48 h
QUANTITY_KIND: TGI

Some solved cases for reference:
CCCCc1ccc(-n2c3nc(=O)n(C)c(=O)c-3nc3ccccc32)cc1: 18.5 µM
COc1ccc(C(=O)OC2C=COC(C)C2OC(=O)c2ccc(OC)cc2)cc1 (configuration not stated): 37.1 µM
CCn1c(O)c(C=N)c(=O)n(CC)c1=O: > 100 µM

Prompt: Annotate the compound Cc1cc(C)nc(NS(=O)(=O)c2ccc(Nc3c4ccc(Cl)cc4nc4c(C(=O)Nc5ccc(S(=O)(=O)N=C(N)N)cc5)cccc34)cc2)n1 with its measured TGI.
Completion: > 100 µM

Prompt: Annotate the compound COC(=O)c1ccc(N=NN(C)COc2ccc([N+](=O)[O-])cc2)cc1 with its measured TGI.
Completion: > 100 µM

Prompt: Annotate the compound O=C(O)C1Cc2c([nH]c3ccccc23)C=N1 (configuration not stated) with its measured TGI.
Completion: > 100 µM

Prompt: Annotate the compound COC(=O)C12CC3CC(C1)CC(C(=O)OC)(C3)C2 with its measured TGI.
Completion: > 100 µM

Prompt: Annotate the compound COc1cc(C=Nc2ccc(C(C)C)cc2)cc(OC)c1OC with its measured TGI.
Completion: > 100 µM

Prompt: Annotate the compound NC(=S)N/N=C(\C(=O)Nc1cccc([N+](=O)[O-])c1)c1nc2ccc([N+](=O)[O-])cc2[nH]c1=O with its measured TGI.
Completion: > 100 µM

Prompt: Annotate the compound CCCn1c(SCC)c2cc3cc4ccccc4cc3cc2c1-c1nc(F)nc(F)n1 with its measured TGI.
Completion: > 100 µM

Prompt: Annotate the compound Nc1nc(=S)[nH]c(C(=O)Nc2ccc(Cl)c(Cl)c2)c1-c1ccc(Cl)cc1 with its measured TGI.
Completion: > 100 µM

Prompt: Annotate the compound CCOC(=O)NC(=O)c1cn(CCCOC(=O)CCCCCCCCCCC(=O)OCCCn2cc(C(=O)NC(=O)OCC)c(=O)n(C)c2=O)c(=O)n(C)c1=O with its measured TGI.
Completion: > 100 µM

###

Listed below: GI50 values for each entry.
- System: COLO 205 colon
- ASSAY_REMARKS: NCI tumour cell line growth inhibition, 48 h

Some solved cases for reference:
O=C(Nc1ccc(F)cc1F)c1cc(Br)ccc1O: 3.75 µM
COc1ccc(CNc2c3ccccc3nc3ccc(OC)cc23)cc1: 1.76 µM
NC1CCCCC1N.O=S(=O)([O-])CCCN1CCOCC1.O=S(=O)([O-])CCCN1CCOCC1.[Pt+4]: 10.7 µM
Cc1cc(N2CCN(c3ccnc4cc(Cl)ccc34)CC2)nc(NC2CCCCC2)n1: 1.65 µM

Next, consider the following compound.
Prompt: Annotate the compound C=CCN(CC=C)C(=O)c1cc(C)nc2c1c(=O)n(-c1ccccc1)c(=O)n2CC(O)CN1CCN(c2ncccn2)CC1 (stereo not given) with its measured GI50.
Completion: > 100 µM

###

- Tested on: A549 NSCLC
- ASSAY_REMARKS: NCI tumour cell line growth inhibition, 48 h
Listed below: TGI values for each entry.

Prompt: Annotate the compound CCCCCCCCC/C=C1\CC(CO)(COC(=O)C2CCCCC2)OC1=O (stereo not given) with its measured TGI.
Completion: 48.3 µM

###

- Test system: OVCAR-8 ovarian
- ASSAY_REMARKS: NCI tumour cell line growth inhibition, 48 h
QUANTITY_KIND: TGI

Some solved cases for reference:
COC(=O)C1=C(\c2ccccc2)c2ccccc2C(=O)N(C2CCCCC2)/C=C\1: > 100 µM
Nc1cn(Cc2ccccc2)c2nc(/C=C3/C=CC=CC3=O)c(O)n12: > 100 µM
COC(=O)C1[C@@H](C(=O)OC)C12C=Cc1ccccc1C=C2 (stereo not given in full): > 100 µM
NC(=N\N=C/c1cccc([N+](=O)[O-])c1)/C(N)=N\N=C/c1cccc([N+](=O)[O-])c1: > 100 µM
Cc1cccc(Cl)c1NC(=O)/C=C/c1ccccc1: > 100 µM
O=C(Nc1ccc(F)cc1)C(=O)C(C1OC(=O)c2ccccc21)[N+](=O)[O-] (stereo not given): > 100 µM
C=CCN1C=CC(=O)[C@H](O[Si](C)(C)C(C)(C)C)[C@@H]1/C=C/c1ccccc1: > 100 µM
C(=NCc1ccccc1)c1ccccc1-c1ccccc1C=NCc1ccccc1: > 10 µM
COc1cc2c(Oc3ccc4[nH]c(C)cc4c3F)ccnc2cc1OCC1(N)CC1: > 100 µM

Next, consider the following molecule.
Prompt: Provide the reported TGI (system: OVCAR-8 ovarian) for C/C(=N/O)c1cccc(Nc2nc3ccc(Cl)cc3c3[nH]c4ccccc4c23)c1
Completion: 7.77 µM

###

Listed below: TGI values for each entry.
- Test system: MOLT-4 leukemia
- ASSAY_REMARKS: NCI tumour cell line growth inhibition, 48 h

Some solved cases for reference:
COc1c(Cl)c2c(c(OC)c1OC)-c1ccc(SC)c(=O)cc1[C@@H](NC(=O)OCC(F)(F)F)CC2: > 100 µM
CNn1c(C)n[nH]c1=O: > 100 µM
CC[Si](CC)(CC)OC[C@]1([C@@H]2COC(C)(C)O2)CC=CC(=O)O1: > 100 µM

Prompt: Annotate the molecule CC1=C(C(=O)NCCc2ccccc2)CC(C(=O)NCCc2ccccc2)=C(C)N1 with its measured TGI.
Completion: > 100 µM

Prompt: Annotate the molecule C1CCN(C2OC3C(COC3N3CCCCC3)OC2OC2CCO[C@@H]2N2CCCCC2)CC1 (some centres not stated) with its measured TGI.
Completion: 84.7 µM

Prompt: Annotate the molecule Cc1nc2cc(N)c(F)cc2[nH]1 with its measured TGI.
Completion: > 100 µM

Prompt: Annotate the molecule COc1ccc(-c2nc3ncccn3c2/C=C/C(=O)c2cc(OC)c(OC)c(OC)c2)cc1 with its measured TGI.
Completion: > 100 µM

Prompt: Annotate the molecule C/C(=N/O)c1cccc(Nc2nc3ccc(Cl)cc3c3[nH]c4ccccc4c23)c1 with its measured TGI.
Completion: 5.97 µM

Prompt: Annotate the molecule O=c1ccnc2c1ccc1[nH]cccc12 with its measured TGI.
Completion: > 100 µM

Prompt: Annotate the molecule O=C1c2cc([N+](=O)[O-])ccc2-c2cccc(F)c21 with its measured TGI.
Completion: > 100 µM
